Below, each of the compounds is paired with its reported LogP value.
Test: physchem
Format: physicochemical

Examples from the recorded data:
FC1ON=C(c2cc(Cl)ncc2Oc2cccc(C(F)(F)F)c2)NC1c1ccc(Cl)cc1 (mixture of isomers) [Compound I-051]	3.33^[a]
Cc1ccc(CC2CON=C(c3cc(Cl)ncc3Br)N2)c(C)c1 (stereo not shown) [7-01]	3.31^[a]
O=C(NC(CON1C(=O)c2ccccc2C1=O)Cc1ccc(Br)cc1Cl)c1cc(Cl)ncc1Oc1cccc(C(F)F)c1 (stereo not shown) [3-10]	5.00^[a]
COc1ccc(C2CCON=C(c3cc(Cl)ncc3Oc3cccc(C(F)(F)F)c3)N2)cc1 (stereo not shown) [Compound I-155]	1.90^[a]
Cc1ccc(Cl)c(CC2CON=C(c3cc(Cl)ncc3Br)N2)c1 (stereo not shown) [7-09]	3.46^[a]

[in] Requested field: LogP. Item: COc1cccc(Oc2cnc(Cl)cc2C(=O)NC(CON2C(=O)c3ccccc3C2=O)Cc2ccc(C)cc2C)c1 (stereo not shown) [3-09]
[out] 4.80^[a]

[in] Requested field: LogP. Item: Fc1cccc(Oc2cnc(Cl)cc2C2=NOCC(Cc3ccc(Cl)cc3Cl)N2)c1F (racemic) [Compound I-071]
[out] 4.40^[a]

[in] Requested field: LogP. Item: O=C(NC(CON1C(=O)c2ccccc2C1=O)Cc1ccc(Br)cc1Cl)c1cc(Cl)ncc1Oc1cccc(C2CC2)c1 (stereo not shown) [3-02]
[out] 5.75^[a]

[in] Requested field: LogP. Item: Cc1ccc(CC2CON=C(c3cc(Cl)ncc3Oc3cccc(C4COC4)c3)N2)c(C)c1 (racemic) [Compound I-113]
[out] 3.68^[a]

[in] Requested field: LogP. Item: CCc1cccc(Oc2cnc(Cl)cc2C2=NOCC(Cc3ccc(Cl)cc3Cl)N2)c1F (stereo not shown) [Compound I-141]
[out] 5.16^[a]

[in] Requested field: LogP. Item: CCC1ON=C(c2cc(Cl)ncc2Oc2cccc(C(F)(F)F)c2)NC1c1ccc(OC)cc1 (mixture of isomers) [Compound I-122]
[out] 4.07^[a]

[in] Requested field: LogP. Item: Cc1ccc(CC(CCl)NC(=NO)c2cc(Cl)nc(F)c2Oc2cccc(C(F)(F)F)c2)c(C)c1 (stereo not shown) [16-06]
[out] 5.16^[a]

[in] Requested field: LogP. Item: Cc1ccc(CC2CON=C(c3cc(C)ncc3Oc3cccc(C4CC4)c3F)N2)c(Cl)c1 (racemic) [Compound I-031]
[out] 4.08^[a]

[in] Requested field: LogP. Item: FC(F)(F)c1cccc(Oc2cnc(Cl)cc2C2=NOC(C3CC3)C(c3ccc(Cl)cc3)N2)c1 (mixture of isomers) [Compound I-139]
[out] 4.47^[a]

[in] Requested field: LogP. Item: Cc1ccc(CC2CON=C(c3cc(Cl)ncc3Oc3ccc(C)c(Cl)c3)N2)c(C)c1 (racemic) [Compound I-076]
[out] 4.97^[a]
